Record type: IC50 measurement. Applies to: thrombin (Homo sapiens, UniProt P00734)
Peptide text beside a SMILES is read from it. * marks the point of attachment. Tos = Cc1ccc(S(=O)(=O)*)cc1

# COMPOUND, VALUE_UNIT, IC50
measured = [
    ("CCCCS(=O)(=O)N[C@@H](CC(=O)OC)C(=O)N1CCC[C@H]1C(=O)N[C@H](C=O)CCCNC(=N)N [n-BuSO2 -Asp(OCH3)-Pro-Arg-al]", "nM", 3.7),
    ("COC(=O)C[C@H](NS(=O)(=O)c1ccc2ccccc2c1)C(=O)N1CCC[C@H]1C(=O)N[C@H](C=O)CCCNC(=N)N [2-NpSO2 -Asp(OCH3)-Pro-Arg-al]", "nM", 0.62),
    ("COC(=O)C[C@H](NS(=O)(=O)c1ccc(C)cc1)C(=O)N1CCC[C@H]1C(=O)N[C@H](C=O)CCCNC(=N)N [(4-MePh)SO2 -Asp(OCH3)-Pro-Arg-al] (Tos-Asp(OMe)-Pro-Arg-aldehyde)", "nM", 1.1),
    ("N=C(N)NCCC[C@@H](C=O)NC(=O)[C@@H]1CCCN1C(=O)[C@H](CC(=O)O)NC(=O)CC1CCCCC1 [ChxAc-Asp-Pro-Arg-al]", "nM", 47),
]

Hello, the source for this data is patent US5955576A, in case you need it.
